# ASSAY_METHOD_TEXT: NCI Yeast Anticancer Drug Screen. Data for the sgs1 mgt1 strain (AID 161);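 also: 0% = growth of cultures given vehicle only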
# CONDITION_LABEL: S. cerevisiae sgs1 mgt1 strain, at 50.0 µM, hits give high values
The panel holds about 79,000 compounds, 15% with a hit somewhere; the sample as a whole holds those more often.
Could you please report measured growth inhibition for the items listed next?
Numbers only, in %.

| SMILES | UNIT_SYMBOL | EXPERIMENTAL_RESULT |
| --- | --- | --- |
| O=Cc1ccccc1O.[Pr] | % | 37 |
| C/C(=N\NC(=S)N1CC2CCC(CC2)C1)c1nccs1 | % | 87 |
| COCCCNP(=O)(OC(C)C)OC(C)C | % | 8.6 |
| COc1cc(OC)cc(C(=O)Cc2c(C(=O)c3ccccc3)c3ccccc3n2C(=O)c2ccccc2)c1 | % | 0.1 |

Here is another compound to look at.
[Q] // query growth inhibition value for entry O=c1[nH]c2ccc([As](=O)(O)O)cc2[nH]1
[A] -0.95

---

Can you tell me growth inhibition for the items I'm about to list?
# ASSAY_METHOD_TEXT: NCI Yeast Anticancer Drug Screen. Data for the mec2-1 strain (AID 157)
# CONDITION_LABEL: S. cerevisiae mec2-1 strain, at 50.0 µM, hits give high values
Compounds without any hit were thinned out: in the full panel of roughly 79,000, 15% have a hit.
Give bare numbers, in %.

Completed entries (count: 4):
| MOLECULE | UNIT_SYMBOL | growth inhibition |
| --- | --- | --- |
| N[C@H]1C2C3CC4C5CC(C42)C1(c1ccccc1)C53 (stereo not given in full) | % | -5.25 |
| COc1ccc2nc3ccccc3c(NCCCCCCN(CCCl)CCCl)c2c1 | % | 79.1 |
| CCN1C[C@]2(COC)[C@H](O)C[C@H](OC)[C@]34C1[C@H]([C@H](OC)[C@H]23)[C@]1(OC(C)=O)[C@H]2[C@@H](OC(=O)c3ccccc3)[C@](O)(C[C@H]24)[C@@H](OC)[C@@H]1O | % | -4 |
| CC(C)CCC(=O)OC1CCC2(C)C(=CCC3C2CCC2(C)C(O)CCC32)C1 (stereo not given) | % | -1.95 |

[Q] Looking for the measured growth inhibition of Nc1ccc([N+](=O)[O-])cc1[N+](=O)[O-] , can you help?
[A] 5.4

---

# ASSAY_METHOD_TEXT: NCI Yeast Anticancer Drug Screen. Data for the mlh1 rad18 strain (AID 175)
# CONDITION_LABEL: S. cerevisiae mlh1 rad18 strain growth inhibition; at 50.0 µM; hits give high values
Compounds without any hit were thinned out: in the full panel of roughly 79,000, 15% have a hit.
Criterion: growth inhibition meeting or surpassing 90%. Met: Satisfied. Not met: Not satisfied.

Worked examples, 10 compounds total:
| COMPOUND | CATEGORY_LABEL |
| --- | --- |
| CN(C)CCc1ccccc1 | Not satisfied |
| Cc1ccc(CI)cc1 | Not satisfied |
| O=C1N[C@H]2[C@H](O)[C@H](O)[C@@H](O)[C@H](O)[C@@H]2c2cc3c(c(O)c21)OCO3 | Not satisfied |
| O=C(CBr)Nc1ccccc1 | Satisfied |
| O=C(O)CCCNSc1ccccc1[N+](=O)[O-] | Not satisfied |
| COc1cc(C(c2c(O)c3ccccc3oc2=O)c2c(O)c3ccccc3oc2=O)cc(OC)c1OC | Not satisfied |
| O=[N+]([O-])c1ccc(NP(=S)(Nc2ccc([N+](=O)[O-])cc2)c2ccccc2)cc1 | Satisfied |
| O=C1C=C(Cl)C(=O)C(Cl)=C1 | Satisfied |
| O=C(O)C1C2C=Cc3ccccc3C21 (stereo not given) | Not satisfied |
| c1ccc2c(c1)sc1sc3c([n+]12)CCCC3 | Not satisfied |

Here is another compound to look at.
[Q] Test whether the compound C[N+](C)=c1nc(N2CCc3ccccc3C2)ss1 records growth inhibition of 90% or higher.
[A] Not satisfied

---

# ASSAY_METHOD_TEXT: NCI Yeast Anticancer Drug Screen. Data for the mec2-1 strain (AID 157)
# CONDITION_LABEL: S. cerevisiae mec2-1 strain, at 50.0 µM, hits give high values
The panel holds about 79,000 compounds, 15% with a hit somewhere; the sample as a whole holds those more often.
RECORDED_METRIC: growth inhibition (%)
Numbers only, in %.

| COMPOUND | growth inhibition (%) |
| --- | --- |
| O=[N+]([O-])c1ccc(Cl)c(Cl)c1 | -4.6 |

Dear colleague, could you send me growth inhibition for each of the items below? Thanks.
1. Nc1ccccc1O.O.O=C(O)C1[O][Sb][O]C1C(=O)O (centres undefined)
2. Nc1nc(N)c(-c2ccc(Cl)c(Cl)c2)c(COc2cccc(CNS(=O)(=O)c3ccc(S(=O)(=O)F)cc3)c2)n1

[A]
1. 53.5
2. 49.5

// batch mode: one growth inhibition value per listed entry
1. O=C(Cc1ccccc1)OCCBr
2. C/C(=C\C(C)C)C1(C)C(=O)NC(=O)NC1=O
3. CC1=C/C(=C2/N=C(N(C)C)SS2)C(C)=N1
4. C[CH2][Sn]([CH2]C)([O]C(=O)c1ccccc1F)[O]C(=O)c1ccccc1F
5. CN(C)CCC(O)c1c[nH]c2ccccc12 (centres undefined)
6. NNC(=O)c1cc([N+](=O)[O-])c(O)c([N+](=O)[O-])c1

[A]
1. 4.65
2. 11.4
3. -0.9
4. 27.6
5. 1
6. -14.8

Count: 5. Required value per item: growth inhibition.
1. NCCN.NCCN.[Cl-].[O]=[Re]=[O]
2. NC1CCCCC1.[O]=[Ge].[O]=[Ge].[O]=[Ge][OH].[O]=[Ge][OH]
3. Oc1c(Cl)cc(Cl)cc1C1N(Cc2ccc(N(CCCl)CCCl)cc2)CCCN1Cc1ccc(N(CCCl)CCCl)cc1
4. Oc1cccc2cccnc12.[Cr]
5. [C-]#[O+].[C-]#[O+].[C-]#[O+].[C-]#[O+].[W].c1ccc([PH+](CC[PH+](c2ccccc2)c2ccccc2)c2ccccc2)cc1

[A]
[-8.55, -10.9, 17.2, -0.65, 5.2]

---

Task for the reader: assign each of the following compounds its reported growth inhibition.
# ASSAY_METHOD_TEXT: NCI Yeast Anticancer Drug Screen. Data for the bub3 strain (AID 167)
# CONDITION_LABEL: S. cerevisiae bub3 mutant strain, at 50.0 µM (retest, dose inferred, filed as 5.0), hits give high values
Compounds without any hit were thinned out: in the full panel of roughly 79,000, 15% have a hit.
One number for each entry, in %.

Study these solved cases before continuing.
| COMPOUND | RECORDED_METRIC | EXPERIMENTAL_RESULT |
| --- | --- | --- |
| O=P(Oc1ccccc1)(Oc1ccccc1)Oc1ccccc1Cl | growth inhibition | 28 |
| COc1cc(/C=C/[N+](=O)[O-])c(OC)cc1Br | growth inhibition | 75 |
| CC1(Br)Cc2ccccc2C1=O (centres undefined) | growth inhibition | 36 |
| OC1CC([CH2][Hg][I])OC([CH2][Hg][I])C1 (centres undefined) | growth inhibition | 99 |
| Clc1ccccc1C#[C][Hg][C]#Cc1ccccc1Cl | growth inhibition | 92 |

Give growth inhibition for all compounds that follow.
1. O=C(N/N=C/c1cc(Br)cc(Br)c1[O-])c1ccccc1O.O=C(N/N=C/c1cc(Br)cc(Br)c1[O-])c1ccccc1O.[Mn+2]
2. [Cl][Pt+2][Cl].[NH-]c1ccc([N+](=O)[O-])cc1[NH-]
3. CCC[CH2][Sn]1([CH2]CCC)[O]CC(CN2CCOCC2)[O]1 (centres undefined)
4. Cl[C](Cl)(Cl)[Hg][C](Cl)(Cl)Cl
5. O=C(O)C1CC2c3ccccc3C1([N+](=O)[O-])c1ccccc12 (centres undefined)

[A]
94
95
27
97
6

Dear colleague, could you send me growth inhibition for each of the items below? Thanks.
1. O=C(CCCc1ccccc1)[O][Hg][c]1ccccc1
2. C/C=C1/C(=O)O[C@]23C=C[C@@H]4C(C(=O)OC)=CO[C@H](O[C@@H]12)[C@@H]43
3. [Pt].c1ccc([PH+](c2ccccc2)c2ccccc2)cc1.c1ccc([PH+](c2ccccc2)c2ccccc2)cc1.c1ccc([PH+](c2ccccc2)c2ccccc2)cc1.c1ccc([PH+](c2ccccc2)c2ccccc2)cc1
4. O=C1CN2CCCCC2CN1 (centres undefined)

[A]
1. 99
2. 96
3. 54
4. -71

---

# ASSAY_METHOD_TEXT: NCI Yeast Anticancer Drug Screen. Data for the sgs1 mgt1 strain (AID 161);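 also: 0% = growth of cultures given vehicle only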
# CONDITION_LABEL: S. cerevisiae sgs1 mgt1 strain, at 50.0 µM, hits give high values
Compounds without any hit were thinned out: in the full panel of roughly 79,000, 15% have a hit.
RECORDED_METRIC: growth inhibition (%)
Answers are plain numbers, in %.

Some compounds with recorded growth inhibition:
| COMPOUND | growth inhibition [%] |
| --- | --- |
| CC1CC2CCC1(CO)CN2 (centres undefined) | 0.1 |
| Cc1cc2n[se]nc2cc1C | 20.6 |
| CCC(=O)C(CCN1CCC(N2C(=O)C(CCC#N)c3ccccc32)CC1)(c1ccccc1)c1ccccc1 (centres undefined) | 10.8 |

[Q] Form field: reported growth inhibition of O=C(O)C(F)(F)F.O=C(O)C(F)(F)F.O=C(O)C(F)(F)F.O=C(O)C(F)(F)F.[Rh].[Rh]
[A] 22.1

Values were extracted from PubChem BioAssay (NCI).
